target-desc: Steroidogenic factor 1 (Homo sapiens)
Sequence (Q13285 whole entry, the tested form may be a part): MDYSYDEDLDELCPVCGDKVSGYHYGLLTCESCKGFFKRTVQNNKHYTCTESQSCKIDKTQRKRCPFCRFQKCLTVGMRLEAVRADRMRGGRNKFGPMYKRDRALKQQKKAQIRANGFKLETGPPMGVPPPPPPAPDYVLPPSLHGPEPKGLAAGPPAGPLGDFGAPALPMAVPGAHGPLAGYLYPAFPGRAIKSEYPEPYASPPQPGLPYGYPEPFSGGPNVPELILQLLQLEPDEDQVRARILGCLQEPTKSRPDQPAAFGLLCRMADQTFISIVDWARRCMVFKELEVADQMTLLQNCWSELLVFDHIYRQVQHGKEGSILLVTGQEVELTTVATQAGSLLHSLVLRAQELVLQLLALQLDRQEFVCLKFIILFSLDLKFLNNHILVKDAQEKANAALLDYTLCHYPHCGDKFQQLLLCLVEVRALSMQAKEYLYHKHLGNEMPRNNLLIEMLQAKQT
test-details: inhibition of SF-1 LBD-driven luciferase – cell-based, CHO-K1, Gal4-SF-1 LBD, luciferase luminescence, counter-screen for RORA inhibitor project, dose response (AID 611)
pIC50: −log10 of the molar value.
assay-metric: pIC50

Some entries whose results are on file:
Cc1ccnc(NC(=O)CCCOc2cc(=O)n(C)c3ccccc23)c1; 5.05
Cc1ccc(-c2nc(-c3ccccn3)no2)cc1; 5.98

A: COc1cccc(-c2nnc3n2N=C(C(C)(C)C)CS3)c1
B: Cc1cc(C(=O)Nc2cccc(C(=O)O)c2)oc1C
C: COc1cc(CN=O)ccc1OCc1ccc(C(=O)O)cc1
D: CCCN1C=CC(=C2C(=O)c3ccccc3C2=O)C=C1
**Q:** Task field, ranking: reported pIC50, descending order. Answer format: the labels, in the requested order.
**A:** D, C, B, A

I: CCOC(=O)c1c(N)sc(C(=O)Nc2ccc3c(c2)OCO3)c1C
II: O=S(=O)(C/C(=C/CO)S(=O)(=O)c1ccccc1)c1ccccc1
**Q:** Return label of the item with the larger pIC50. Candidates: I , II . Reply briefly: the label of your chosen item.
**A:** II
